FYI, the data here is from the supplement of paper PMC10567573.

B1: NECAB1 (parent)
chain: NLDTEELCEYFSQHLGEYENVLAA

# Variants of: B1
# experiment notes: protein stability index of a GFP-peptide fusion (GPS, HEK-293T) (PSI 1-6); higher = more stable;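 also: lentivirally expressed fusions sorted by FACS into six bins by GFP to DsRed ratio, PSI derived from sequencing read proportions per bin multiplied by bin number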
# assay conditions: c terminus: a fixed tail appended

query sequence	protein stability index
NLDTEELCEYFSQHLGEYEAVLAA [N20A]	2.03
NLDTEELCEYFSQHIGEYENVLAA [L15I]	1.97
NLDTEELCPYFSQHLGEYENVLAA [E9P]	3.97
NLDTEELCAYFSQHLGEYENVLAA [E9A]	1.99
NLDTEELCEYFSQHLGEYEWVLAA [N20W]	2.03
NLDTEELKEYFSQHLGEYENVLAA [C8K]	3.9
NKDTEELCEYFSQHLGEYENVLAA [L2K]	3.9
NLDTEELCEYFSQHLGEYENNLAA [V21N]	4.05
NLDTEELCEYFSQHLGEYENVLAN [A24N]	2.02
NLDTEELCELFSQHLGEYENVLAA [Y10L]	4.08
NLLTEELCEYFSQHLGEYENVLAA [D3L]	2.01
